# MEASUREMENT_TARGET: Carbonic anhydrase 2 (Homo sapiens, UniProt P00918)
# ASSAY_DETAILS: Inhibition of recombinant human carbonic anhydrase-2 expressed in Escherichia coli incubated for 15 mins prior to testing by stopped-flow CO2 hydration assay
QUANTITY_KIND: IC50
# output: number + unit

# count of solved cases: 5
[[record]]
molecule = "NS(=O)(=O)c1cccc(NC(=S)NC(=O)c2ccc(Cl)cc2Cl)c1"
measurement_target = "Carbonic anhydrase 2 (Homo sapiens, UniProt P00918)"
quantity_kind = "IC50"
val = "950 nM"

[[record]]
molecule = "NS(=O)(=O)c1ccc(NC(=S)NC(=O)c2ccc(Cl)cc2)cc1"
measurement_target = "Carbonic anhydrase 2 (Homo sapiens, UniProt P00918)"
quantity_kind = "IC50"
val = "12.9 nM"

[[record]]
molecule = "NS(=O)(=O)c1ccc(NC(=S)NC(=O)c2ccccc2Cl)cc1"
measurement_target = "Carbonic anhydrase 2 (Homo sapiens, UniProt P00918)"
quantity_kind = "IC50"
val = "22.9 nM"

[[record]]
molecule = "COc1ccc(C(=O)NC(=S)Nc2cccc(S(N)(=O)=O)c2)cc1"
measurement_target = "Carbonic anhydrase 2 (Homo sapiens, UniProt P00918)"
quantity_kind = "IC50"
val = "908 nM"

[[record]]
molecule = "COc1ccccc1C(=O)NC(=S)Nc1cccc(S(N)(=O)=O)c1"
measurement_target = "Carbonic anhydrase 2 (Homo sapiens, UniProt P00918)"
quantity_kind = "IC50"
val = "20.7 nM"


Request: Reported IC50, molecule `NS(=O)(=O)c1ccc(NC(=S)NC(=O)c2ccc(Cl)cc2Cl)cc1` : ____
Result: 11.8 nM

Request: May I ask what IC50 has been recorded for `NS(=O)(=O)c1ccc(NC(=S)NC(=O)c2ccc([N+](=O)[O-])cc2)cc1` ?
Result: 749 nM

Request: If you can, please state the reported IC50 value of `NS(=O)(=O)c1cccc(NC(=S)NC(=O)c2ccccc2)c1` .
Result: 167 nM

Request: IC50 lookup needed for `NS(=O)(=O)c1cccc(NC(=S)NC(=O)c2ccc(Cl)cc2)c1` , thanks.
Result: 240 nM

Request: For `NS(=O)(=O)c1cccc(NC(=S)NC(=O)c2ccc([N+](=O)[O-])cc2)c1` , what is its reported IC50?
Result: 142 nM

Request: Name the reported IC50 value associated with the molecule `NS(=O)(=O)c1cccc(NC(=S)NC(=O)c2ccccc2Cl)c1`
Result: 277 nM

Request: Recorded IC50 for `COc1ccc(C(=O)NC(=S)Nc2ccc(S(N)(=O)=O)cc2)cc1` , please?
Result: 25.6 nM

Request: Could you tell me which IC50 is on file for `COc1ccccc1C(=O)NC(=S)Nc1ccc(S(N)(=O)=O)cc1` ?
Result: 2.09 nM

###

# MEASUREMENT_TARGET: Carbonic anhydrase 1 (Homo sapiens, UniProt P00915)
# Sequence (P00915 whole entry): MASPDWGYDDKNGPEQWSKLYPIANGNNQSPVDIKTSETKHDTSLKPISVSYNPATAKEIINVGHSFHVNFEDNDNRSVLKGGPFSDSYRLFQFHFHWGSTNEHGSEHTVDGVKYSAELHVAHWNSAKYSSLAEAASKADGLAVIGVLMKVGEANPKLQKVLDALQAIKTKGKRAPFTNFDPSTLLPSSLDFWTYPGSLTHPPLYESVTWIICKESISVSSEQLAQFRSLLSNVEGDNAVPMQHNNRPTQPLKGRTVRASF
Param label: returns yes (1) when IC50 < 400 nM, returns no (0) otherwise, including exact equality.

Here's what some known entries look like.
[[record]]
molecule = "COc1ccccc1C(=O)NC(=S)Nc1cccc(S(N)(=O)=O)c1"
measurement_target = "Carbonic anhydrase 1 (Homo sapiens, UniProt P00915)"
assigned_class = "yes (1)"

[[record]]
molecule = "NS(=O)(=O)c1ccc(NC(=S)NC(=O)c2ccc(Cl)cc2Cl)cc1"
measurement_target = "Carbonic anhydrase 1 (Homo sapiens, UniProt P00915)"
assigned_class = "no (0)"

[[record]]
molecule = "NS(=O)(=O)c1cccc(NC(=S)NC(=O)c2ccccc2)c1"
measurement_target = "Carbonic anhydrase 1 (Homo sapiens, UniProt P00915)"
assigned_class = "no (0)"

[[record]]
molecule = "NS(=O)(=O)c1cccc(NC(=S)NC(=O)c2ccc([N+](=O)[O-])cc2)c1"
measurement_target = "Carbonic anhydrase 1 (Homo sapiens, UniProt P00915)"
assigned_class = "yes (1)"

[[record]]
molecule = "NS(=O)(=O)c1cccc(NC(=S)NC(=O)c2ccccc2Cl)c1"
measurement_target = "Carbonic anhydrase 1 (Homo sapiens, UniProt P00915)"
assigned_class = "no (0)"


Consider the record given below.
Request: Is the reported IC50 for `NS(=O)(=O)c1ccc(NC(=S)NC(=O)c2ccc(Cl)cc2)cc1` strictly below 400 nM?
Result: no (0)

###

The entries below come with measured Ratio IC50 values attached.
# Species on record: Homo sapiens
# ASSAY_DETAILS: Selectivity ratio of IC50 for recombinant human carbonic anhydrase-2 expressed in Escherichia coli to IC50 for human carbonic anhydrase-9
Would you mind answering with just the numeric figure?

Guide cases for Ratio IC50, answers given:
[[record]]
molecule = "NS(=O)(=O)c1ccc(NC(=S)NC(=O)c2ccc(Cl)cc2)cc1"
quantity_kind = "Ratio IC50"
val = 3.13

[[record]]
molecule = "NS(=O)(=O)c1cccc(NC(=S)NC(=O)c2ccc(Cl)cc2)c1"
quantity_kind = "Ratio IC50"
val = 5.67

[[record]]
molecule = "NS(=O)(=O)c1cccc(NC(=S)NC(=O)c2ccccc2)c1"
quantity_kind = "Ratio IC50"
val = 6.47


Request: Looking for the measured Ratio IC50 of `NS(=O)(=O)c1cccc(NC(=S)NC(=O)c2ccc(Cl)cc2Cl)c1` , can you help?
Result: 215

Request: Looking for the measured Ratio IC50 of `COc1ccccc1C(=O)NC(=S)Nc1cccc(S(N)(=O)=O)c1` , can you help?
Result: 0.38

Request: Any idea what its Ratio IC50 is? The compound is `NS(=O)(=O)c1ccc(NC(=S)NC(=O)c2ccccc2Cl)cc1`
Result: 6.68

Request: Name the reported Ratio IC50 value associated with the compound `NS(=O)(=O)c1ccc(NC(=S)NC(=O)c2ccc(Cl)cc2Cl)cc1`
Result: 98.5

Request: Can you share its Ratio IC50? I mean this compound: `NS(=O)(=O)c1cccc(NC(=S)NC(=O)c2ccccc2Cl)c1`
Result: 14.6

Request: Form field: reported Ratio IC50 of `NS(=O)(=O)c1ccc(NC(=S)NC(=O)c2ccc([N+](=O)[O-])cc2)cc1`
Result: 1560

Request: Consider the compound shown here: `COc1ccc(C(=O)NC(=S)Nc2cccc(S(N)(=O)=O)c2)cc1` What is its recorded Ratio IC50?
Result: 35.6

Request: # query: Ratio IC50 of entry `COc1ccccc1C(=O)NC(=S)Nc1ccc(S(N)(=O)=O)cc1`
Result: 6.97

Request: Which Ratio IC50 is reported for this compound? `COc1ccc(C(=O)NC(=S)Nc2ccc(S(N)(=O)=O)cc2)cc1`
Result: 54.4

###

# Organism: Homo sapiens
# ASSAY_DETAILS: Selectivity ratio of IC50 for human erythrocyte carbonic anhydrase-1 to IC50 for human carbonic anhydrase-9
Assign labels as follows, please: YES for Ratio IC50 below 100; NO for Ratio IC50 equal to or exceeding 100.

Example cases with answers are listed next.
[[record]]
molecule = "NS(=O)(=O)c1cccc(NC(=S)NC(=O)c2ccc(Cl)cc2Cl)c1"
assigned_class = "NO"

[[record]]
molecule = "COc1ccc(C(=O)NC(=S)Nc2cccc(S(N)(=O)=O)c2)cc1"
assigned_class = "YES"

[[record]]
molecule = "COc1ccccc1C(=O)NC(=S)Nc1ccc(S(N)(=O)=O)cc1"
assigned_class = "NO"

[[record]]
molecule = "COc1ccc(C(=O)NC(=S)Nc2ccc(S(N)(=O)=O)cc2)cc1"
assigned_class = "NO"

[[record]]
molecule = "NS(=O)(=O)c1ccc(NC(=S)NC(=O)c2ccccc2Cl)cc1"
assigned_class = "NO"


Request: Item `NS(=O)(=O)c1cccc(NC(=S)NC(=O)c2ccc(Cl)cc2)c1` : Ratio IC50 beneath 100, strictly?
Result: YES

Request: Decide: Ratio IC50 of `COc1ccccc1C(=O)NC(=S)Nc1cccc(S(N)(=O)=O)c1` strictly below 100?
Result: YES

Request: Record `NS(=O)(=O)c1cccc(NC(=S)NC(=O)c2ccccc2)c1` : is its Ratio IC50 strictly below 100?
Result: YES

Request: In plain terms, does `NS(=O)(=O)c1ccc(NC(=S)NC(=O)c2ccc([N+](=O)[O-])cc2)cc1` come in under 100 for Ratio IC50?
Result: NO

Request: Answer whether the molecule `NS(=O)(=O)c1cccc(NC(=S)NC(=O)c2ccccc2Cl)c1` has Ratio IC50 strictly less than 100
Result: YES

Request: Lab log: compare recorded Ratio IC50 with 100; is it strictly lower for `NS(=O)(=O)c1ccc(NC(=S)NC(=O)c2ccc(Cl)cc2Cl)cc1` ?
Result: NO

###

Overview of reported pIC50 across a group of molecules:
# MEASUREMENT_TARGET: Carbonic anhydrase 9 (Homo sapiens)
# ASSAY_DETAILS: Inhibition of human carbonic anhydrase-9 incubated for 15 mins prior to testing by stopped-flow CO2 hydration assay
# log scale: pIC50 equals minus log10 of the concentration in mol/L

Solved cases (5 shown):
[[record]]
molecule = "NS(=O)(=O)c1cccc(NC(=S)NC(=O)c2ccc(Cl)cc2)c1"
measurement_target = "Carbonic anhydrase 9 (Homo sapiens)"
val = 7.37

[[record]]
molecule = "NS(=O)(=O)c1cccc(NC(=S)NC(=O)c2ccccc2)c1"
measurement_target = "Carbonic anhydrase 9 (Homo sapiens)"
val = 7.59

[[record]]
molecule = "COc1ccc(C(=O)NC(=S)Nc2ccc(S(N)(=O)=O)cc2)cc1"
measurement_target = "Carbonic anhydrase 9 (Homo sapiens)"
val = 9.33

[[record]]
molecule = "NS(=O)(=O)c1ccc(NC(=S)NC(=O)c2ccccc2Cl)cc1"
measurement_target = "Carbonic anhydrase 9 (Homo sapiens)"
val = 8.47

[[record]]
molecule = "NS(=O)(=O)c1ccc(NC(=S)NC(=O)c2ccc([N+](=O)[O-])cc2)cc1"
measurement_target = "Carbonic anhydrase 9 (Homo sapiens)"
val = 9.32


Let us move to another entry and its pIC50.
Request: # pIC50 lookup, item `NS(=O)(=O)c1ccc(NC(=S)NC(=O)c2ccc(Cl)cc2Cl)cc1`
Result: 9.92
